- system: human TREX1 (Homo sapiens)
- Sequence (Q9NSU2 whole entry): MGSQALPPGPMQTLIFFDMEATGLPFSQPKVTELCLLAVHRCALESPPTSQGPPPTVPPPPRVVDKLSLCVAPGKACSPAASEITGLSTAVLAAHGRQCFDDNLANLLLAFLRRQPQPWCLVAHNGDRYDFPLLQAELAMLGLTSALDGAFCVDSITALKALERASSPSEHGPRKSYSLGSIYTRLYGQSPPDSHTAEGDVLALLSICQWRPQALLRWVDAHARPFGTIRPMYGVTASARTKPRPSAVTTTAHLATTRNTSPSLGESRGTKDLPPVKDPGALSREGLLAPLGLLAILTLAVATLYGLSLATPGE
attribute.measured: Kd (nM)

These solved cases illustrate the format of a correct answer.
| molecule | value.reported |
| --- | --- |
| CC(c1nc(C(=O)Nc2cnoc2)c(O)c(=O)n1C)C(c1ccccc1C#N)c1ccccc1C#N (single isomer, unassigned) [Example 4 Isomer 2] | 0.042 |
| C[C@H](c1nc(C(=O)Nc2cnoc2)c(O)c(=O)n1C)[C@H](c1ccccc1)c1ccccc1Cl (single isomer, unassigned) [Example 2 Isomer 3] | 0.345 |
| CC(c1nc(C(=O)Nc2cnoc2)c(O)c(=O)n1C)C(c1ccccc1)c1ccc(Cl)cc1C#N (single isomer, unassigned) [Example 9 Isomer 4] | 0.116 |
| C[C@H](c1nc(C(=O)Nc2cnoc2)c(O)c(=O)n1C)C(c1ccccc1Cl)c1ccccc1Cl (single isomer, unassigned) [Example 15 Isomer 1] | 0.183 |

(A) CC(c1nc(C(=O)Nc2cnoc2)c(O)c(=O)n1C)C(c1ccccc1Cl)c1ccccc1C#N (single isomer, unassigned) [Example 10 Isomer 1]
(B) CC(c1nc(C(=O)Nc2cnoc2)c(O)c(=O)n1C)C(c1ccccc1)c1cc(Cl)ccc1C#N (single isomer, unassigned) [Example 8 Isomer 2]
Exam item: Which entry shows the lesser value of Kd here, A or B ? Let me know the label of the one you choose.
Marked response: A
(A: 0.07 nM, B: 0.361 nM)
